- Target under test: Sodium-dependent serotonin transporter (Homo sapiens, UniProt P31645)
- Sequence (P31645 whole entry, looked up): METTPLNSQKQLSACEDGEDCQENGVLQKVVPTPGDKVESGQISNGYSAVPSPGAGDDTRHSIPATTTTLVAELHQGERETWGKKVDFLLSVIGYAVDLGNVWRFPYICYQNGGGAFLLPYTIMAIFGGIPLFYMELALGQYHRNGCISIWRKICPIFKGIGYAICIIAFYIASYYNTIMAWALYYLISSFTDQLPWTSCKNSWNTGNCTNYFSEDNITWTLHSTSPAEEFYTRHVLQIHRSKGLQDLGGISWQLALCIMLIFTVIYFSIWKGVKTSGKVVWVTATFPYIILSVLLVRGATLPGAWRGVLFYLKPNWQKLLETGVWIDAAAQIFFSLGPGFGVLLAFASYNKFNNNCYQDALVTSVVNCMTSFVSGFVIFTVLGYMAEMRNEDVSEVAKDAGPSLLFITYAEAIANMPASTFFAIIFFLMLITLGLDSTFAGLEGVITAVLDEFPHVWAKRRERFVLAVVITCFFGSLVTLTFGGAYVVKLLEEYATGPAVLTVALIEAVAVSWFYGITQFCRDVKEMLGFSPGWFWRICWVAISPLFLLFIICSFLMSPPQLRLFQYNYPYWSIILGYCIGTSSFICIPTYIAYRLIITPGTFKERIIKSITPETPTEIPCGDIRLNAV
- Measurement parameters: HEK293, at 0.1 µM
Assign class by inhibition: not lower than 30% means true; lower than 30% means false.

Molecule	Target under test	Assigned label
c1ccc(OC(c2ccccc2)C2CNC2)cc1 (centres undefined)	Sodium-dependent serotonin transporter (Homo sapiens, UniProt P31645)	false
CCCOC(c1ccc2ccccc2c1)C1CNC1.Cl (centres undefined)	Sodium-dependent serotonin transporter (Homo sapiens, UniProt P31645)	true
Clc1ccc(C(Oc2ccccc2)C2CNC2)cc1Cl (centres undefined)	Sodium-dependent serotonin transporter (Homo sapiens, UniProt P31645)	false
Clc1ccc(C(OCc2ccccc2)C2CNC2)cc1 (centres undefined)	Sodium-dependent serotonin transporter (Homo sapiens, UniProt P31645)	false
OC(c1ccc(Cl)cc1)C1CNC1 (centres undefined)	Sodium-dependent serotonin transporter (Homo sapiens, UniProt P31645)	false
CCOC(c1ccccc1)C1CNC1 (centres undefined)	Sodium-dependent serotonin transporter (Homo sapiens, UniProt P31645)	false
Cl.c1ccc(OC(c2ccc3ccccc3c2)C2CNC2)cc1 (centres undefined)	Sodium-dependent serotonin transporter (Homo sapiens, UniProt P31645)	true
Fc1cc(C(Oc2ccccc2F)C2CNC2)ccc1Cl (centres undefined)	Sodium-dependent serotonin transporter (Homo sapiens, UniProt P31645)	true
Clc1ccc(OC(c2ccc3ccccc3c2)C2CNC2)cc1Cl (centres undefined)	Sodium-dependent serotonin transporter (Homo sapiens, UniProt P31645)	false
OC(c1ccccc1)C1CNC1 (centres undefined)	Sodium-dependent serotonin transporter (Homo sapiens, UniProt P31645)	false
CCCOC(c1ccc(Cl)c(Cl)c1)C1CNC1 (centres undefined)	Sodium-dependent serotonin transporter (Homo sapiens, UniProt P31645)	true
CCOC(c1ccc(Cl)c(Cl)c1)C1CNC1 (centres undefined)	Sodium-dependent serotonin transporter (Homo sapiens, UniProt P31645)	false
Fc1ccc(C(OCCN2CCN(CCCc3ccccc3)CC2)c2ccc(F)cc2)cc1	Sodium-dependent serotonin transporter (Homo sapiens, UniProt P31645)	false
COC(c1ccc(Cl)cc1)C1CNC1 (centres undefined)	Sodium-dependent serotonin transporter (Homo sapiens, UniProt P31645)	false
